Tested on: Jump-In T-REx CHO-K1 BLA cells
test: cells
Assay type: cell-based
testSettings: 0% FBS 4Hr; read-out: TETCHO: Counterscreen EC50
Positions of bridges follow the written chain, without caps; N, C: chain ends. Non-standard residues stand in square brackets, D forms with d. Residues, ends and D or L forms follow the SMILES beside them. dPhe(4-CF3) = N[C@H](Cc1ccc(C(F)(F)F)cc1)C(=O)O; dTrp(6-F) = N[C@H](Cc1c[nH]c2cc(F)ccc12)C(=O)O; tBuAla = CC(C)(C)C[C@H](N)C(=O)O; R8 = C=CCCCCCC[C@@](C)(N)C(=O)O; R5 = C=CCCC[C@@](C)(N)C(=O)O; S5 = C=CCCC[C@](C)(N)C(=O)O; Aib = CC(C)(N)C(=O)O
quantityMeasured: EC50

Study these solved cases before continuing.
molecule	testedOn	EC50
CC(=O)N[C@@H](C(=O)N[C@H](C)C(=O)N[C@H](Cc1c[nH]c2cc(F)ccc12)C(=O)N[C@H](Cc1ccc(O)cc1)C(=O)N[C@H](C)C(=O)N[C@]1(C)CCCC=CCCC[C@](C)(C(=O)N[C@H](CC(C)C)C(=O)N[C@H](CO)C(N)=O)NC(=O)[C@@H](CCC(N)=O)NC(=O)[C@@H](CCC(=O)O)NC(=O)[C@@H](Cc2ccc(C(F)(F)F)cc2)NC1=O)[C@H](C)O [MP-797] (Ac-[dT][dA][dTrp(6-F)][dY][dA][R5][dPhe(4-CF3)][dE][dQ][R5][dL][dS]-NH2; staple 6-10)	Jump-In T-REx CHO-K1 BLA cells	> 50.4 µM
CC(=O)N[C@H](C(=O)N[C@@H](CO)C(=O)N[C@@H](Cc1ccccc1)C(=O)N[C@]1(C)CCCCCCC=CCCC[C@@](C)(C(=O)N[C@@H](CO)C(=O)N[C@@H](C)C(=O)N[C@@H](C)C(=O)N[C@@H](CCC(=O)O)C(N)=O)NC(=O)[C@H](CC(C)(C)C)NC(=O)[C@H](CC(C)C)NC(=O)[C@H](C)NC(=O)[C@H](Cc2c[nH]c3ccccc23)NC(=O)[C@H](Cc2ccc(O)cc2)NC(=O)[C@H](CCC(=O)O)NC1=O)[C@@H](C)O [MP-143] (Ac-TSF[R8]EYWAL[tBuAla][S5]SAAE-NH2; staple 4-11)	Jump-In T-REx CHO-K1 BLA cells	> 50 µM
CC(=O)N[C@@H](CCCCN=[N+]=[N-])C(=O)NCCC(=O)N[C@@H](CC(C)C)C(=O)N[C@H](C(=O)N[C@@H](Cc1ccccc1)C(=O)N[C@]1(C)CCCCCCC=CCCC[C@@](C)(C(=O)N2CCC[C@@H]2C(=O)N2CCC[C@@H]2C(=O)N2CCC[C@@H]2C(=O)N2CCC[C@@H]2C(=O)N2CCC[C@@H]2C(=O)N2CCC[C@@H]2C(N)=O)NC(=O)[C@H](CC2CCC2)NC(=O)[C@H](CCC(N)=O)NC(=O)[C@H](C)NC(=O)[C@H](Cc2c[nH]c3ccccc23)NC(=O)[C@H](Cc2ccc(O)cc2)NC(=O)[C@H](CCC(=O)O)NC1=O)[C@@H](C)O [MP-896]	Jump-In T-REx CHO-K1 BLA cells	> 50.4 µM
CC(=O)N[C@H](C(=O)N[C@@H](CO)C(=O)N[C@@H](Cc1ccccc1)C(=O)NC(C)(C)C(=O)N[C@@H](CCC(=O)O)C(=O)N[C@@H](Cc1ccc(O)cc1)C(=O)N[C@@H](Cc1c[nH]c2ccccc12)C(=O)N[C@@H](C)C(=O)N[C@@H](CC(C)C)C(=O)N[C@@H](CC(C)(C)C)C(=O)NC(C)(C)C(N)=O)[C@@H](C)O [MP-155] (Ac-TSF[Aib]EYWAL[tBuAla][Aib]-NH2)	Jump-In T-REx CHO-K1 BLA cells	> 50 µM
CC(=O)N[C@@H](CC(C)C)C(=O)N[C@H](C(=O)N[C@@H](Cc1ccccc1)C(=O)NC(C)(C)C(=O)N[C@@H](CCC(=O)O)C(=O)N[C@@H](Cc1ccc(O)cc1)C(=O)N[C@@H](Cc1c[nH]c2ccccc12)C(=O)N[C@@H](C)C(=O)N[C@@H](CCC(N)=O)C(=O)N[C@@H](CC(C)C)C(=O)NC(C)(C)C(=O)N[C@@H](CO)C(N)=O)[C@@H](C)O [MP-790] (Ac-LTF[Aib]EYWAQL[Aib]S-NH2)	Jump-In T-REx CHO-K1 BLA cells	> 50.6 µM

Q: Look up EC50: CC(=O)N[C@H](C(=O)N[C@@H](CO)C(=O)N[C@@H](Cc1ccccc1)C(=O)N[C@]1(C)CCCCCCC=CCCC[C@@](C)(C(N)=O)NC(=O)[C@H](CC(C)(C)C)NC(=O)[C@H](CC(C)C)NC(=O)[C@H](C)NC(=O)[C@H](Cc2c[nH]c3ccccc23)NC(=O)[C@H](Cc2ccc(O)cc2)NC(=O)[C@H](CCC(=O)O)NC1=O)[C@@H](C)O [MP-149] (Ac-TSF[R8]EYWAL[tBuAla][S5]-NH2; staple 4-11)
A: > 50 µM

Q: Now the same for CC(=O)N[C@H](C(=O)N[C@@H](CO)C(=O)N[C@@H](Cc1ccccc1)C(=O)N[C@]1(C)CCCCCCC=CCCC[C@@](C)(C(N)=O)NC(=O)[C@H](CC(C)C)NC(=O)[C@H](CC(C)C)NC(=O)[C@H](C)NC(=O)[C@H](Cc2c[nH]c3ccccc23)NC(=O)[C@H](Cc2ccc(O)cc2)NC(=O)[C@H](CCC(N)=O)NC1=O)[C@@H](C)O [MP-163] (Ac-TSF[R8]QYWALL[S5]-NH2; staple 4-11)
A: > 50 µM

Q: Now the same for CC(=O)N[C@@H](CC(C)C)C(=O)N[C@H](C(=O)N[C@@H](Cc1ccccc1)C(=O)N[C@]1(C)CCCCCCC=CCCC[C@@](C)(C(=O)N[C@@H](CO)C(=O)N[C@@H](C)C(=O)N[C@@H](C)C(N)=O)NC(=O)[C@H](CC(C)C)NC(=O)[C@H](CCC(N)=O)NC(=O)[C@H](C)NC(=O)[C@H](Cc2c[nH]c3ccccc23)NC(=O)[C@H](Cc2ccc(O)cc2)NC(=O)[C@H](CCC(=O)O)NC1=O)[C@@H](C)O [MP-211]
A: 48.5 µM

Q: Now the same for CC(=O)N[C@@H](CCCCN)C(=O)N[C@@H](CCCCN)C(=O)N[C@H](C(=O)N[C@@H](CO)C(=O)N[C@@H](Cc1ccccc1)C(=O)N[C@]1(C)CCCCCCC=CCCC[C@@](C)(C(=O)N[C@@H](CCC(=O)O)C(N)=O)NC(=O)[C@H](CC(C)(C)C)NC(=O)[C@H](CC(C)C)NC(=O)[C@H](C)NC(=O)[C@H](Cc2c[nH]c3ccccc23)NC(=O)[C@H](Cc2ccc(O)cc2)NC(=O)[C@H](CCC(=O)O)NC1=O)[C@@H](C)O [MP-1159] (Ac-KKTSF[R8]EYWAL[tBuAla][S5]E-NH2; staple 6-13)
A: 49.2 µM

* * *

test: Experimental LogD (partition coefficient)
testSettings: not stated, Partition Coeff LogD
Positions of bridges follow the written chain, without caps; N, C: chain ends. Non-standard residues stand in square brackets, D forms with d. Residues, ends and D or L forms follow the SMILES beside them. Lys(N3) = [N-]=[N+]=NCCCC[C@H](N)C(=O)O; R8 = C=CCCCCCC[C@@](C)(N)C(=O)O; Cba = N[C@@H](CC1CCC1)C(=O)O; S5 = C=CCCC[C@](C)(N)C(=O)O; βAla = NCCC(=O)O
quantityMeasured: logD
// return just the number, without any unit appended

compound	recordedNumber
CC(=O)N[C@@H](CCCCN=[N+]=[N-])C(=O)NCCC(=O)N[C@@H](CC(C)C)C(=O)N[C@H](C(=O)N[C@@H](Cc1ccccc1)C(=O)N[C@]1(C)CCCCCCC=CCCC[C@@](C)(C(=O)N[C@@H](CO)C(=O)N[C@@H](C)C(=O)N[C@@H](C)C(N)=O)NC(=O)[C@H](CC2CCC2)NC(=O)CNC(=O)[C@H](C)NC(=O)[C@H](Cc2c[nH]c3ccccc23)NC(=O)[C@H](Cc2ccc(O)cc2)NC(=O)[C@H](CCC(=O)O)NC1=O)[C@@H](C)O [MP-262] (Ac-[Lys(N3)][βAla]LTF[R8]EYWAG[Cba][S5]SAA-NH2; staple 6-13)	2.85

Q: Look up logD: "CC(=O)N[C@@H](CCCNC(=N)N)C(=O)N[C@@H](CCCNC(=N)N)C(=O)NCCCCCC(=O)N[C@@H](CC(C)C)C(=O)N[C@H](C(=O)N[C@@H](Cc1ccccc1)C(=O)N[C@]1(C)CCCCCCC=CCCC[C@@](C)(C(=O)N[C@@H](CO)C(=O)N[C@@H](C)C(=O)N[C@@H](C)C(N)=O)NC(=O)[C@H](CC2CCC2)NC(=O)[C@H](CCC(N)=O)NC(=O)[C@H](C)NC(=O)[C@H](Cc2c[nH]c3ccccc23)NC(=O)[C@H](Cc2ccc(O)cc2)NC(=O)[C@H](CCC(=O)O)NC1=O)[C@@H](C)O"
A: 2.51
